Test system: green foxtail (Setaria viridis)
Test: Test B pre-/postemergence plant response
Type: in vivo
Conditions: Postemergence, 62 g ai/ha; scale 0 (no effect) to 100 (complete control); 13 to 15 days
Recorded Plant response rating, Foxtail, Green, one value per entry.
Please give only the number in your answer, with no unit.

// worked examples, Plant response rating, Foxtail, Green included
>>> df
                               input_smiles                             observable  quantitative_readout
0  O=C1CCCC(O)=C1C(=O)c1cnc(-c2cccc(Cl)c2)n(-c2ccccc2)c1=O  Plant response rating, Foxtail, Green                    90
1  Cc1ccc(-n2c(-c3cccc(Cl)c3)ncc(C(=O)C3=C(O)CCCC3=O)c2=O)cc1  Plant response rating, Foxtail, Green                    80
2  O=C1CCCC(O)=C1C(=O)c1cnc(-c2ccccc2)n(-c2ccc(F)cc2)c1=O  Plant response rating, Foxtail, Green                    40
3  CCCn1c(-c2ccccc2)ncc(C(=O)C2=C(O)CCCC2=O)c1=O  Plant response rating, Foxtail, Green                    80

--- query ---
Ask: Sample `Cc1ccc(C)c(-n2c(-c3ccccc3)ncc(C(=O)C3=C(O)CCCC3=O)c2=O)c1` — what was its Plant response rating, Foxtail, Green?
Result: 75
